Where these numbers come from: paper PMC6188150

- targetOrTestSystem: tissue transglutaminase (tTG) (Homo sapiens, UniProt P21980)
- Construct: recombinant tTG
- Sequence (P21980 2-687): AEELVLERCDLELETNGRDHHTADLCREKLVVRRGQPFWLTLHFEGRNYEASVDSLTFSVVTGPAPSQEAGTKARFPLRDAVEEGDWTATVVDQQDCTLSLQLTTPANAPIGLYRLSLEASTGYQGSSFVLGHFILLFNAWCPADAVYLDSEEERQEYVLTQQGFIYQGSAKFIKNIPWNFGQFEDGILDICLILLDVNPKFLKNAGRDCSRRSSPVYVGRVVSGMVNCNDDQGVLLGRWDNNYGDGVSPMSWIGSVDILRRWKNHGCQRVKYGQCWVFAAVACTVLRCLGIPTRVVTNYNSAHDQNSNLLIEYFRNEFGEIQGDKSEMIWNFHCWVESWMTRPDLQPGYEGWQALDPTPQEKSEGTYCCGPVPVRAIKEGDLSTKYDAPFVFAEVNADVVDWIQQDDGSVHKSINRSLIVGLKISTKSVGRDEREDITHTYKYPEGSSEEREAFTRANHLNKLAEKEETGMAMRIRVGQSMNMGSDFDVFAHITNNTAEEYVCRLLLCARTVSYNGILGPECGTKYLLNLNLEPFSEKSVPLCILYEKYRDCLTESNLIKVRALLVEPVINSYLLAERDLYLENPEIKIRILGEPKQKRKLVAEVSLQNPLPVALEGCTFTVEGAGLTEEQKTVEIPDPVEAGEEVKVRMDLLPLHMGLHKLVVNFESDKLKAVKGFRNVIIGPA
- assayExplanation: bodipy-GTP-γS fluorescence binding assay after CaCl2 then EDTA; also BPA/NNDC crosslinking inhibition and trypsin susceptibility
pEC50: −log10 of the molar value.
measurementLabel: pEC50

[[record]]
smilestext = "Cc1ccc(N/C=C2/C(=O)NC(=O)N(c3ccccc3)C2=O)cc1CN1C(=O)c2ccccc2C1=O"
targetortestsystem = "tissue transglutaminase (tTG) (Homo sapiens, UniProt P21980)"
quantitativeresult = 4.70

